B1: Azoarcus group I ribozyme (parent)
chain: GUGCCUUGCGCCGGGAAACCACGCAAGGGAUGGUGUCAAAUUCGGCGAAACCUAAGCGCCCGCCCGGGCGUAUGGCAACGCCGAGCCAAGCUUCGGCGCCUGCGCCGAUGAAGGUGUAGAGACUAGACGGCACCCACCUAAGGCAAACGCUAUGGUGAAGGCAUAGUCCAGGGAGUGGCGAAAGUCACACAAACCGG

# Variants of: B1
# experiment.notes: reverse-splicing fitness (ratio to wild type); higher = more active; in vitro selection; Mg2+ level not given
quantity.name: reverse-splicing fitness
Write no unit; give the number alone.

# input What measured reverse-splicing fitness goes with C82U A111G A120U A145U C150U C169A U176G ?
# output 0.00165

# input What measured reverse-splicing fitness goes with C82U A111G A120U A145U C169A U176A ?
# output 0.00208

# input What measured reverse-splicing fitness goes with A120U A145G C169A U176A ?
# output 0.00474

# input What measured reverse-splicing fitness goes with C82A A111C A120G A145U C150A C169U U176G ?
# output 0.00563

# input What measured reverse-splicing fitness goes with C82G A111C A120G U176C ?
# output 0.0226

# input What measured reverse-splicing fitness goes with C82U A111U C150U C169A U176G ?
# output 0.00643

# input What measured reverse-splicing fitness goes with C82U A111C A145U C169G ?
# output 0.0103

# input What measured reverse-splicing fitness goes with C82U A111G C150G C169A U176G ?
# output 0.00562

# input What measured reverse-splicing fitness goes with A111C A120G C150G C169U U176G ?
# output 0.00441

# input What measured reverse-splicing fitness goes with C82G A111U A120C A145C C150U C169A U176C ?
# output 0.0115

# input What measured reverse-splicing fitness goes with C82U A120U C150A C169U U176C ?
# output 0.00331

# input What measured reverse-splicing fitness goes with A111U A120G A145G C169A U176A ?
# output 0.0312

# input What measured reverse-splicing fitness goes with C82G A111U A120G C150U ?
# output 0.0127

# input What measured reverse-splicing fitness goes with C82A A111C C169G ?
# output 0.00911

# input What measured reverse-splicing fitness goes with C82A A111C C169A U176G ?
# output 0.00874

# input What measured reverse-splicing fitness goes with C82U A111U A145U C150U ?
# output 0.183

# input What measured reverse-splicing fitness goes with C82G A111U A120U A145C C169U U176A ?
# output 0.00287

# input What measured reverse-splicing fitness goes with A111U A120G C150G C169G U176A ?
# output 0.00621

# input What measured reverse-splicing fitness goes with C82U A111C A120G A145U C150A U176C ?
# output 0.0144

# input What measured reverse-splicing fitness goes with A111G A120G A145G C150A C169U U176G ?
# output 0.00605

# input What measured reverse-splicing fitness goes with A111C A145U C150U C169A U176C ?
# output 0.0129

# input What measured reverse-splicing fitness goes with A120C C150G C169U U176A ?
# output 0.0117
